system: breast line MDA468; assay: In vitro cell culture growth assay (MTS), MDA468; format: cell-based, human; conditions: Homo sapiens, 72 h, MDA468 cells, three days after drug treatment
# maps each entry to its IC50
Answer as a quantity: numeral, then unit.

Illustrative cases are given below, each with its answer.
{"Chem smiles": "Nc1ncc(-c2nc(N3CCOCC3)c3cnn(C4CCN(Cc5cccnc5)CC4)c3n2)cn1", "Parameter measured": "IC50", "Measurement": "800 nM"}
{"Chem smiles": "CNC(=O)Nc1ccc(-c2nc(N3CCOCC3)c3cnn(C4CCN(Cc5ccccc5)CC4)c3n2)cc1", "Parameter measured": "IC50", "Measurement": "100 nM"}
{"Chem smiles": "S=C(Nc1cccnc1)N1CCC(n2ncc3c(N4CCOCC4)nc(-c4ccc5[nH]ccc5c4)nc32)CC1", "Parameter measured": "IC50", "Measurement": "1300 nM"}

In the following, a different compound is considered.
# input Which value of IC50 has been reported for "CNC(=O)Nc1ccc(-c2nc(N3CCOCC3)c3cnn(C4CCN(C(=O)OC(C)(C)C)CC4)c3n2)cc1" in the records?
# output 300 nM
